# Test system: NCI-H226 lung
# Procedure Text: NCI tumour cell line growth inhibition, 48 h
# TGI annotations

Use the examples below as a reference point.
- Cc1ccc(/C=C/C(=O)C(C)(C)CN2CCCCC2)cc1: 27.6 µM
- CCc1nn(CN2CCOCC2)c(=S)n1/N=C/c1ccc(-c2ccc(Cl)cc2)o1: > 100 µM
- C1CCC([PH+](C2CCCCC2)C2CCCCC2[PH+](C2CCCCC2)C2CCCCC2)CC1.[Au].[CH-]1CCCCC1CC1CCCC[N-]1 (stereo not given): 2.7 µM

Ask: Can you share its TGI? I mean this compound: O=C(O)C12C3CCC(CC3)C1(C(=O)O)C1CCC2C1 (stereo not given)
Reply: > 100 µM

Ask: Another compound to look at: CC1=C2[C@@H](CC1)[C@]1(C)O[C@@](c3ccccc3)(C[C@H]1OC(=O)CO)[C@H]2OC(=O)/C=C/c1ccccc1
Reply: 37.2 µM

* * *

# TGI annotations
# Tested on: RXF 393 renal
# Procedure Text: NCI tumour cell line growth inhibition, 48 h
Express it in µM; write the number only.

* O=C(NN1C(=O)CSC12CCCCC2)c1[nH]c2ccc(Br)cc2c1-c1ccccc1 | 30.3

Ask: Can you share its TGI? I mean this molecule: CC(=O)c1ccc2c(c1)CC1(C2)Cc2cc3c(cc2C1=O)CCC3 (stereo not given)
Reply: 90.4

* * *

# Test system: TK-10 renal
# Procedure Text: NCI tumour cell line growth inhibition, 48 h
Measured Property: TGI

Use the examples below as a reference point.
* CC(=O)/C=C/c1cn(C(=O)OC(C)(C)C)c2ccc(Br)cc12 | 33.9 µM
* CC1(C)C=Cc2c(cc(O)c3c(=O)c4cc(Cl)ccc4[nH]c23)O1 | > 10 µM
* O=C1NC(=O)C2C(=O)NC(=O)C1C2c1c(Cl)cccc1Cl (stereo unspecified) | > 100 µM

Ask: What reported TGI corresponds to O=C(/C=C/c1cc2ccccc2[nH]c1=O)/C=C/c1cc2ccccc2[nH]c1=O on TK-10 renal?
Reply: > 60.7 µM

Ask: Another compound to look at: CC1=NNC(=O)C1C1CC(c2c[nH]c3ccccc23)=NNC1=O (stereo unspecified)
Reply: > 100 µM

Ask: Another compound to look at: CCCN(CCS(C)(=O)=O)Cc1ccc(-c2ccc3ncnc(Nc4ccc(OCc5cccc(F)c5)c(Cl)c4)c3c2)o1
Reply: > 25 µM

Ask: Another compound to look at: COCc1nc(N)nc(N2N=C(C)CC2(C)C)n1
Reply: > 100 µM

Ask: Another compound to look at: O=C1OCC2=C1C(c1ccccc1)c1cc3c(cc1N2)OCO3 (stereo unspecified)
Reply: > 100 µM

Ask: Another compound to look at: CC(C)(C)OC(=O)NC(Cc1ccccc1)OCc1ccccc1 (stereo unspecified)
Reply: 41.2 µM

Ask: Another compound to look at: CCN(CC)CC1c2ccccc2C(CNc2ccccc2)N1C (stereo unspecified)
Reply: > 100 µM

Ask: Another compound to look at: O=C1CC(c2c[nH]c3ccccc23)C(=O)N1 (stereo unspecified)
Reply: > 100 µM

* * *

# Test system: IGROV1 ovarian
# Procedure Text: NCI tumour cell line growth inhibition, 48 h
Measured Property: TGI

Use the examples below as a reference point.
• O=C(O)CN1CCN(CC(=O)O)CC(=O)[O][Hg][O]C(=O)C1 = 28.4 µM
• Cc1cccc(C)c1NC(=O)/C(=N/NC(N)=S)C(C)C(=O)c1ccc(Cl)cc1 (stereo unspecified) = > 100 µM
• Cc1[nH]c2ccccc2c1C(=O)CC1(O)C(=O)Nc2c(Cl)cc(Cl)cc21 (stereo unspecified) = > 100 µM
• C#C[C@]1(O)CCCC2=CC(=O)CC[C@@]21C = > 100 µM
• O=C1/C(=C/c2ccccc2[N+](=O)[O-])Cc2ccccc21 = 8.59 µM

Then this molecule:
Ask: Can you share its TGI? I mean this molecule: CC1=NN(C(=O)c2ccncc2)C(=O)C1
Reply: > 100 µM

* * *

# System: SW-620 colon
# Procedure Text: NCI tumour cell line growth inhibition, 48 h
Measured Property: TGI

Use the examples below as a reference point.
* O=c1[nH]c(=O)n(C2CC(O)C(COP(=O)(OCc3ccc([N+](=O)[O-])o3)N(CCCCCl)CC(O)CO)O2)cc1F (stereo not drawn) | > 100 µM
* CC(C)(C)c1cc2c(OC/C=C/c3ccccc3)c(c1)Cc1cc(C(C#N)(OC/C=C/c3ccccc3)OC/C=C/c3ccccc3)cc(c1OC/C=C\c1ccccc1)Cc1cc(C(C)(C)C)cc(c1OC/C=C/c1ccccc1)Cc1cc(C(C#N)(OC/C=C\c3ccccc3)OC/C=C/c3ccccc3)cc(c1OC/C=C\c1ccccc1)C2 (stereo not drawn) | > 100 µM

Then this compound:
Ask: Can you share its TGI? I mean this compound: C[C@@H]1CN(Cc2ccc(F)cc2)[C@@H](C)CN1C(=O)c1cc2c(C(=O)C(=O)N(C)C)cn(C)c2cc1Cl
Reply: > 84.9 µM

* * *

# System: OVCAR-5 ovarian
# Procedure Text: NCI tumour cell line growth inhibition, 48 h
Measured Property: log10 TGI (log10 of the value in µM)
In plain terms, each number is the log10 of measured TGI in µM.

Use the examples below as a reference point.
- O=C1c2c(c3c4ccccc4[nH]c3c3ccc4ccccc4c23)C(=O)N1CCN1CCNCC1: 0.49
- O=C1c2ccccc2-c2cc([N+](=O)[O-])c([N+](=O)[O-])cc21: 0.73
- CC(C)(C)OC(=O)NC(Cc1ccccc1)OCc1ccccc1 (configuration not stated): 1.76
- CCOc1ccccc1C(=O)N1CCN(c2cc(Cl)cc(Cl)c2)CC1: 1.21

Then this molecule:
Ask: Can you share its log10 TGI? I mean this molecule: O=S(=O)(Nc1cc(Sc2cccc3cccnc23)c(O)c2ccccc12)c1ccc(F)cc1
Reply: 1.03

* * *

# Tested on: A498 renal
# Procedure Text: NCI tumour cell line growth inhibition, 48 h
Please enter Y where TGI is greater than or equal to 20 µM, and N where it is lower.

- O=C(/C=C\c1cccc([N+](=O)[O-])c1)/C=C/c1cccc([N+](=O)[O-])c1: Y
- CCc1nn(CN2CCOCC2)c(=S)n1/N=C/c1ccc(-c2ccc(Cl)cc2)o1: Y
- COC(=O)[C@@H]1[C@H](OC(C)=O)CCC2[C@@]3(C[C@@H](c4ccoc4)O[C@@H]3OC)[C@H](C)CC[C@]21C(=O)OC (stereo partly specified): Y

Now look at this entry.
Ask: # check: TGI of Cn1c(=O)c2[nH]c(CCNC(=O)c3ccccc3)nc2n(C)c1=O is greater than or equal to 20 µM
Reply: Y

* * *

# System: PC-3 prostate
# Procedure Text: NCI tumour cell line growth inhibition, 48 h
Measured Property: TGI (µM)
Express it in µM; write the number only.

Use the examples below as a reference point.
• CC1=C2[C@@H](CC1)[C@]1(C)O[C@@](c3ccccc3)(C[C@H]1OC(=O)CO)[C@H]2OC(=O)/C=C/c1ccccc1 = 31.5
• CCOC(=O)c1c(C)nc2c1c(CN(C)C)c(O)c1[nH]c(C)c(C)nc12 = 54.5
• O=C(NN1C(=O)CSC12CCCCC2)c1[nH]c2ccc(Br)cc2c1-c1ccccc1 = 32.2
• O=C(O)CN1CCN(CC(=O)O)CC(=O)[O][Hg][O]C(=O)C1 = 30.5

Then this molecule:
Ask: Can you share its TGI? I mean this molecule: COc1ccc2cc1Oc1ccc(cc1)C[C@H]1c3c(cc4c(c3Oc3cc5c(cc3OC)CCN(C)[C@@H]5C2)OCO4)CCN1C
Reply: 11.4

* * *

# System: SF-295 CNS
# Procedure Text: NCI tumour cell line growth inhibition, 48 h
# TGI annotations

Use the examples below as a reference point.
• O=c1nc(NC2CCCCO2)ccn1CCO (stereo not given) = > 100 µM
• CCOC(=O)C1C(c2ccc3c(c2)OCO3)c2c([nH][nH]c2=O)CC1(C)O (stereo not given) = > 100 µM
• CC(=O)C(CN(CC(C)C)CC(C)C)C(c1ccccc1)c1c(O)c2ccccc2oc1=O (stereo not given) = > 100 µM
• CCOC(=O)c1c(C)nc2c1c(CN(C)C)c(O)c1[nH]c(C)c(C)nc12 = 62.2 µM

Ask: Can you share its TGI? I mean this compound: Cc1cccc(C)c1NC(=O)/C(=N/NC(N)=S)C(C)C(=O)c1ccc(Cl)cc1 (stereo not given)
Reply: > 100 µM

* * *

# System: SF-268 CNS
# Procedure Text: NCI tumour cell line growth inhibition, 48 h
# GI50 annotations

• CC(C)NCCCn1c(Sc2cc3c(cc2I)OCO3)nc2c(N)ncnc21 = 2.1 µM

Ask: Can you share its GI50? I mean this molecule: Fc1ccc(/C=N/n2c(-c3ccc(F)c(Cl)c3)nn(CNc3ccccc3C(F)(F)F)c2=S)cc1
Reply: > 100 µM

Ask: Another molecule to look at: OCc1ccc(N2CCCC2c2ccccc2)cc1Cl (stereo not given)
Reply: 13.2 µM

Ask: Another molecule to look at: O=C1/C(=C/c2ccccc2[N+](=O)[O-])Cc2ccccc21
Reply: 3.1 µM

Ask: Another molecule to look at: O=C1CCC(N2Cc3cc(CNC(=O)C(F)(F)c4ccc(Cl)cc4)ccc3C2=O)C(=O)N1 (stereo not given)
Reply: > 100 µM
